Data credit: patent US9458124B2

Molecular target: DAT (Rattus norvegicus)
Construct: from tissue; host or cells: rat brain
Sequence (P23977 whole entry): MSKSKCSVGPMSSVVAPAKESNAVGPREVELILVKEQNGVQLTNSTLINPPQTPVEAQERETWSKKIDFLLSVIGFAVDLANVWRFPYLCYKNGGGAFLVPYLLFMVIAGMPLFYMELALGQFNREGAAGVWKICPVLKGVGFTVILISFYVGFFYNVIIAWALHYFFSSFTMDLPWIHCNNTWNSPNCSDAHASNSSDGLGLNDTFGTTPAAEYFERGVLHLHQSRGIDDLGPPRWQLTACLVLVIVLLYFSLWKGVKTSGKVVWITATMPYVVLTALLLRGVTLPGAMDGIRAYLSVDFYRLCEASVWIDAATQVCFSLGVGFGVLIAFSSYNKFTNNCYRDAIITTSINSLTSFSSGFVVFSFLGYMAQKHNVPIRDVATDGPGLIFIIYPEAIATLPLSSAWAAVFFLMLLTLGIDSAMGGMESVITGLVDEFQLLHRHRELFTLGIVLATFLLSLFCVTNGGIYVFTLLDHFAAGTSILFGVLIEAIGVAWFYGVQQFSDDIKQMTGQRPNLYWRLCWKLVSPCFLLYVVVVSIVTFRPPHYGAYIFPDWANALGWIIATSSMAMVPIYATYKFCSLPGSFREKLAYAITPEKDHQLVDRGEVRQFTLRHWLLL
Assay: DAT uptake inhibition, [3H]DA, rat brain
Format: biochemical
Settings: number in parentheses within cell
Readout name: Ki
Respond with the figure and its unit, in that order.

Known results for compounds:
[
  {
    "Record smiles": "O[C@@H]1C[C@@H](C(c2ccc(F)cc2)c2ccc(F)cc2)OC[C@H]1NCc1ccc2c(c1)CCO2",
    "Ki": "17 nM"
  },
  {
    "Record smiles": "COc1cc(O)cc(CN[C@@H]2CO[C@H](C(c3ccccc3)c3ccccc3)C[C@H]2O)c1",
    "Ki": "209 nM"
  },
  {
    "Record smiles": "COc1cccc(CN[C@@H]2CO[C@H](C(c3ccccc3)c3ccccc3)C[C@H]2O)c1",
    "Ki": "376 nM"
  },
  {
    "Record smiles": "Nc1ccc(CN[C@@H]2CO[C@H](C(c3ccc(F)cc3)c3ccc(F)cc3)C[C@H]2O)cc1",
    "Ki": "24.5 nM"
  },
  {
    "Record smiles": "O[C@@H]1C[C@@H](C(c2ccc(F)cc2)c2ccc(F)cc2)OC[C@H]1NCc1ccc2occc2c1",
    "Ki": "29.3 nM"
  }
]

For every item in the list below, what is its measured Ki?
1. COc1cc(CN[C@@H]2CO[C@H](C(c3ccccc3)c3ccccc3)C[C@H]2O)ccc1O
2. COc1cccc(CN[C@@H]2CO[C@H](C(c3ccc(F)cc3)c3ccc(F)cc3)C[C@H]2O)c1
3. COc1cc(O)cc(CN[C@@H]2CO[C@H](C(c3ccc(F)cc3)c3ccc(F)cc3)C[C@H]2O)c1

Result:
1. 167 nM
2. 56.8 nM
3. 25.6 nM
